- experimentDescription: Soft tissue calcification in rats (45Ca radioactivity in heart and kidneys)
- Type: in vivo, Ratten
- testSettings: topical administration for 4 days, ratio relative to compound X (=1)
reportedProperty: Verkalkungsverhältnis Topisch

Study these solved cases before continuing.
C=C1CC[C@H](O)C/C1=C/C=C1\CCC[C@]2(C)C([C@H](C)CC#CC(C)(C)O)=CC[C@@H]12 = >34
C=C1/C(=C\C=C2/CCC[C@]3(C)[C@@H]([C@H](C)CCCC(C)(C)O)CC[C@@H]23)C[C@@H](O)C[C@@H]1O [Verbindung X, 1α,25-Dihydroxycholecalciferol, reference compound] = 1
C=C1/C(=C\C=C2/CCC[C@]3(C)C([C@H](C)CC#CC(C)(C)O)=CC[C@@H]23)C[C@@H](O)C[C@@H]1O = > 1

Field: next compound
Exercise: Fill in: Verkalkungsverhältnis Topisch of C=C1CC[C@H](O)C/C1=C/C=C1\CCC[C@]2(C)C([C@H](C)C/C=C/C(C)(C)O)=CC[C@@H]12 is ___
Key: >34

* * *

The entries below are paired with their reported Verkalkungsverhältnis Subkutan.
- experimentDescription: Soft tissue calcification in rats (45Ca radioactivity in heart and kidneys)
- Format: in vivo, Ratten
- testSettings: subcutaneous administration for 4 days, ratio relative to compound X (=1)
Format: numeric value only, no unit, no commentary.

C=C1/C(=C\C=C2/CCC[C@]3(C)[C@@H]([C@H](C)CCCC(C)(C)O)CC[C@@H]23)C[C@@H](O)C[C@@H]1O [Verbindung X, 1α,25-Dihydroxycholecalciferol, reference compound] = 1

Field: next compound
Exercise: Fill in: Verkalkungsverhältnis Subkutan of C=C1/C(=C\C=C2/CCC[C@]3(C)C([C@H](C)CC#CC(C)(C)O)=CC[C@@H]23)C[C@@H](O)C[C@@H]1O is ___
Key: 47
